Target: STAT6 protein (Homo sapiens, UniProt P42226)
Sequence (P42226 whole entry): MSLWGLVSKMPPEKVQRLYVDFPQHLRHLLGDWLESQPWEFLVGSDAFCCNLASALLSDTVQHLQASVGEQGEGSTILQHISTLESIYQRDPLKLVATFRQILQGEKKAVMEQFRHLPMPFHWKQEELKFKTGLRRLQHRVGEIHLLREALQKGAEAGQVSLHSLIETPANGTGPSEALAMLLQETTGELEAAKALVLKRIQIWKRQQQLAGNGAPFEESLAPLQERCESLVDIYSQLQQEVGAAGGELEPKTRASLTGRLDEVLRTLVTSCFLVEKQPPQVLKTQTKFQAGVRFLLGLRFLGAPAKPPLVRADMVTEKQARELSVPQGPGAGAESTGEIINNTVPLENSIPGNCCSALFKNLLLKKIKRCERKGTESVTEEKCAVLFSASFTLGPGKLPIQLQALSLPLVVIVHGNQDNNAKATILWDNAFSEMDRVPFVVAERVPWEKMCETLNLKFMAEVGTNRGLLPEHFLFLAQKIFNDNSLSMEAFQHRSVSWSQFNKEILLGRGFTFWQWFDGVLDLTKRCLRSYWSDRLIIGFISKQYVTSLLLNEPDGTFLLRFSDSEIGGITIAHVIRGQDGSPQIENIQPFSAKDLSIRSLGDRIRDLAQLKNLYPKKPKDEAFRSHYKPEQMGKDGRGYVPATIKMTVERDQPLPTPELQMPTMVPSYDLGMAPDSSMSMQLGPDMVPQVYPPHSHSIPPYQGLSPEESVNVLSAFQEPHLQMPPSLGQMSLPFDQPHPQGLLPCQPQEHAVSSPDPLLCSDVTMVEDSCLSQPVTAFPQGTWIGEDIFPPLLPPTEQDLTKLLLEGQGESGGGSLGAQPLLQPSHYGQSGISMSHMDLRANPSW
Assay: Fluorescence polarization (FP) binding assay, STAT6
Settings: FP competition, 5 nM fluorescein-labeled tracer, 200 nM protein, PBS pH7.4; read-out: Binding STAT6
pKi: −log10 of the molar value.
Form field: pKi (one value per entry).

compound	study target	pKi
CC(C)(C)[C@H](NC(=O)c1cc2cc(C(F)(F)P(=O)(O)O)ccc2s1)C(=O)N1CCC[C@H]1C(=O)N1CCOC(c2cccs2)C1 (stereo partly shown)	STAT6 protein (Homo sapiens, UniProt P42226)	6.00 to 7.00
CC(C)(C)[C@H](NC(=O)c1cc2cc(C(F)(F)P(=O)(O)O)ccc2s1)C(=O)N1CCC[C@H]1C(=O)N[C@@H]1CCc2ccccc2C1	STAT6 protein (Homo sapiens, UniProt P42226)	5.00 to 6.00
CC(C)(C)[C@H](NC(=O)c1cc2cc(C(F)(F)P(=O)(O)O)ccc2s1)C(=O)N1Cc2ccccc2[C@H]1C(=O)N1CCO[C@H](c2ccccc2)C1	STAT6 protein (Homo sapiens, UniProt P42226)	> 7.00
CCCCC(=O)N1CC[C@H]2CCN(C(=O)[C@@H]3CCCN3C(=O)[C@@H](NC(=O)c3cc4cc(C(F)(F)P(=O)(O)O)ccc4s3)C(C)(C)C)[C@H]2C1	STAT6 protein (Homo sapiens, UniProt P42226)	< 5.00
CC(C)(C)[C@H](NC(=O)c1cc2cc(C(F)(F)P(=O)(O)O)ccc2s1)C(=O)N1CCC[C@H]1C(=O)N(c1ccccc1)c1ccc(I)cc1	STAT6 protein (Homo sapiens, UniProt P42226)	6.00 to 7.00
CC(C)(C)[C@H](NC(=O)c1cc2cc(C(F)(F)P(=O)(O)O)ccc2s1)C(=O)N1CCCC[C@H]1C(=O)N1CCO[C@H](c2ccccc2)C1	STAT6 protein (Homo sapiens, UniProt P42226)	6.00 to 7.00
O=C(N[C@@H](CCc1ccccc1)C(=O)N1CCC[C@H]1C(=O)N1CCO[C@H](c2ccccc2)C1)c1cc2cc(C(F)(F)P(=O)(O)O)ccc2s1	STAT6 protein (Homo sapiens, UniProt P42226)	6.00 to 7.00
CC(C)(C)[C@H](NC(=O)c1cc2cc(C(F)(F)P(=O)(O)O)ccc2s1)C(=O)N1Cc2ccccc2C[C@H]1C(=O)N1CCOC(c2ccc(F)c(Cl)c2)C1 (stereo partly shown)	STAT6 protein (Homo sapiens, UniProt P42226)	5.00 to 6.00
CC(C)(C)[C@H](NC(=O)c1cc2cc(C(F)(F)P(=O)(O)O)ccc2s1)C(=O)N1Cc2ccccc2C[C@H]1C(=O)N1CCOC(c2ccccc2F)C1 (stereo partly shown)	STAT6 protein (Homo sapiens, UniProt P42226)	6.00 to 7.00
CC(C)(C)[C@H](NC(=O)c1cc2cc(C(F)(F)P(=O)(O)O)ccc2s1)C(=O)N1CCC[C@H]1C(=O)N(Cc1ccccc1)C1CCOCC1	STAT6 protein (Homo sapiens, UniProt P42226)	5.00 to 6.00
